# Test system: PRMT1 (protein arginine N-methyltransferase 1)
# method-notes: PRMT1 binders on small-molecule microarrays, primary screen, biochemical, small-molecule microarray, 635 nm fluorescence (AID 1088);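 also: binding of Prmt1 protein to compounds spotted on small-molecule microarray slides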
# condition-details: small-molecule microarray binding, higher = more signal
compounds and their reported composite z-score
Answer using only a numeral; do not append any unit.

Asked: Hello, please tell me recorded composite z-score for this one: `C=C(COC)C(=O)CC[C@H](OC(=O)c1ccccc1-c1ccccc1C(=O)O)c1cccc(OCCO)c1`
Given back: 1.54

Asked: Look up and state reported composite z-score for `C=CCNC(=O)[C@@H]1[C@H]2C(=O)O[C@H](c3ccccc3)[C@H](c3ccccc3)N2[C@H](c2ccc(OCCO)cc2)[C@@]12C(=O)N(C(=O)OCCOC)c1ccc(C#CC3(O)CCCCCC3)cc12`
Given back: 1.56

Asked: Using known records, supply composite z-score for `CCOC(=O)C1=CC[C@@H](c2ccc(-c3ccc(OCc4ccccc4)cc3)c(OC)c2)N(S(=O)(=O)c2ccc(C)cc2)[C@H]1c1ccccc1`
Given back: 1.46

Asked: Please list composite z-score recorded for the compound `CCN1C(C)=C(C(=O)OC)[C@@H](c2ccccc2)N2C(=O)[C@](O)(C(=O)OC)[C@@H](c3ccccc3)C(C(=O)c3ccccc3)=C12`
Given back: 0.481

Asked: Give the measured composite z-score for `C=C(C(=O)CC[C@H](OC(=O)c1ccccc1-c1ccccc1C(=O)O)c1ccc(CO)o1)C(C)C`
Given back: 1.33

Asked: Give recorded composite z-score. `CCCC/C=C/[C@H]([C@@H](O)Cc1ccccc1)N(CC#Cc1ccccc1)Cc1ccccc1Br`
Given back: -0.439

Asked: Read off the recorded composite z-score for `COC(=O)[C@H]1[C@@H]2COc3ccccc3[C@H]2N[C@H]1C(=O)OC`
Given back: 0.213

====

# method-notes: binders of probe aFGF10 on microarray, primary screen, stem cell growth factor project, biochemical, small-molecule microarray, fluorescence 635/667 (AID 1071);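 also: score merges 667 nm spot intensity and signal to noise from triplicate slides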
# condition-details: higher = more signal
quantity-name: composite z-score
Give only the figure.

Reference set (3 entries):
Asked: Determine its reported composite z-score: `O=C1O[C@H](c2ccccc2)[C@H](c2ccccc2)N2[C@H]1[C@@H](C(=O)Nc1nc3ccccc3s1)[C@]1(C(=O)Nc3ccc(C#CC4(O)CCCCCC4)cc31)[C@H]2c1ccc(O)cc1`
Given back: 0.443

Asked: Input O=C1OCC=C[C@H]2OC34C=CCN(Cc5ccccc5)C(=O)[C@H]3N(CCO)C(=O)[C@@H]4[C@@H]12 (some centres undefined) , output reported composite z-score.
Given back: -0.387

Asked: Report measured composite z-score; entry is `C=C(C(=O)CC[C@H](OC(=O)c1ccccc1-c1ccccc1C(=O)O)c1ccc(CO)o1)C(C)C`
Given back: 0.959

Others:
Asked: Provide measured composite z-score value, entry: `CCC#CCN(Cc1ccccc1Br)[C@H](/C=C/c1ccccc1)[C@@H](O)Cc1ccccc1`
Given back: -0.61

====

# method-notes: yeast growth modulation, basal conditions, primary screen, YJM789 clinical isolate, OD600, 24 h (AID 1089);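 also: growth of clinical yeast isolate S. cerevisiae YJM 789 seeded 1000 cells per well; test concentration not given here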
# condition-details: S. cerevisiae YJM789 growth, higher = more signal, called active from +8 up or from −8 down
z-score below -0.1 gives not fulfilled; z-score at or above it gives fulfilled.

Asked: Decide: z-score of `C[C@@H]1NC(=O)CC=C[C@@H](C)[C@@H]2C=C[C@H](O)[C@@H](COC(=O)[C@H](C)NC(=O)CC=C[C@@H](C)[C@@H]3C=C[C@H](O)[C@@H](COC1=O)O3)O2` >= -0.1?
Given back: not fulfilled

Asked: Say whether `CC(C)CN1C(=O)[C@@]2(Cc3ccccc31)c1ccccc1C(=O)N(C1CCCCC1)[C@H]2c1ccc(CO)cc1` shows z-score of -0.1 or more.
Given back: not fulfilled

Asked: Quick check, z-score >= -0.1? `COCCOC(=O)N1C(=O)[C@@]2(c3cc(C#CCNC(N)=O)ccc31)[C@H](c1ccc(OCCO)cc1)N1[C@H](c3ccccc3)[C@H](c3ccccc3)OC(=O)[C@H]1[C@@H]2C(=O)Nc1nc2ccccc2s1`
Given back: fulfilled

Asked: # bool: z-score of C=CCC(OC(C)=O)[C@@H]1[C@@H](N(Cc2cccc3ccccc23)C(=O)Cc2ccc(F)cc2)c2cc(OCCCO)ccc2N1C(=O)Cc1ccc2ccccc2c1 (some centres not stated) >= -0.1
Given back: not fulfilled

Asked: Please indicate if the recorded z-score for Cc1cc(C)c(C(O)C2C=CC3C(=O)N(C)C(=O)C3N2N2CCCCC2)c(C)c1 (configuration not stated) meets or exceeds -0.1.
Given back: not fulfilled

Asked: Textbook exercise: given the entry O=C1NC(=O)C2C1C=CC(C(O)C=Cc1ccc([N+](=O)[O-])cc1)N2Nc1ccccn1 (configuration not stated) , state whether its z-score is greater than or equal to -0.1.
Given back: fulfilled

Shift focus to the following entry.
Asked: Has CN1C(=O)C2C=CC(C(O)c3ccc(N(C)C)cc3)N(Nc3ccc([N+](=O)[O-])cc3[N+](=O)[O-])C2C1=O (configuration not stated) a recorded z-score greater than or equal to -0.1?
Given back: fulfilled

====

# method-notes: small-molecule microarray binders of probe aShh, primary screen, biochemical, biotinylated probe, 635/667 nm fluorescence (AID 1114);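 also: probe is biotin-labelled aShh protein from a stem cell growth factor screen; measures binding of labelled protein to compounds printed on the slide; score merges feature fluorescence at 667 nm with signal-to-noise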
# condition-details: higher = more signal
Each entry below carries its reported composite z-score.
Please give only the number in your answer, with no unit.

Asked: Supply recorded composite z-score for `CCCNC(=O)[C@@H]1c2ccccc2C(=O)N(Cc2cc(F)cc(C(F)(F)F)c2)[C@H]1c1ccc(CO)cc1` here.
Given back: 0.188

Asked: Identify composite z-score associated with the compound `CO[C@H]1COC(=O)[C@H](Cc2ccccc2)NC(=O)CC=C[C@@H](C)[C@H](OC)COC(=O)CC=C[C@@H]1C`
Given back: 0.0022

Asked: Complete the entry with composite z-score for `CC(=O)Nc1ccc([C@H]2[C@H](C)CC[C@H]3C(=O)N4[C@@H](CC[C@@H](C)[C@@H]4c4ccc(NC(C)=O)cc4)C(=O)N32)cc1`
Given back: 0.168

Asked: Specify reported composite z-score for the compound shown: `[N-]=[N+]=NCc1ccccc1C[C@]1(C(=O)N2CCCCC2)N=C(c2ccc(OCCCO)cc2)O[C@H]1c1ccccc1CN=[N+]=[N-]`
Given back: 0.503

Pending compound:
Asked: Supply measured composite z-score of `CO[C@H]1O[C@H](CO)[C@@H](OC(=O)Nc2ccccc2)[C@H](OC(=O)Nc2ccc3c(c2)OCO3)[C@@H]1OC(=O)Nc1ccc2c(c1)OCO2` in your reply.
Given back: 0.151

====

# method-notes: A549 cell viability effects, profiling panel, calcein-AM fluorescence, 48 h, basal (AID 1162); also: test concentration not given here
# condition-details: higher = more signal
Consider the following partition of reported z-score into named classes: Low = under -0.2, Medium = from -0.2 up to 0.4, High = 0.4 and over

Asked: Would you mind sorting C=CCC(OC(C)=O)[C@@H]1[C@@H](N(Cc2ccc(-c3ccccc3)cc2)C(=O)c2ccc(C)cc2)c2cc(OCCCO)ccc2N1C(=O)c1ccc(-c2ccccc2)cc1 (some centres undefined) into the appropriate category?
Given back: High

Asked: Which category does the recorded z-score put `C[C@H]1COC(=O)[C@@H]2CCCN2C(=O)[C@@H](C)COC(=O)[C@@H]2CCCN2C1=O` in?
Given back: High

====

# method-notes: cell viability in Huh7 cells, primary screen, cytotoxicity control for HCV replication inhibitor project, CellTiter-Glo luminescence, basal, 48 h (AID 1143);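 also: Huh7 hepatoma cells carrying a hepatitis C replication reporter with no stimulus; test concentration not given here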
# condition-details: Huh7 HCV replicon, higher = more signal, called active from +8 up or from −8 down
compounds and their reported z-score
I only need the number, thanks.

Asked: Please indicate z-score recorded for `C/C(=N\O)C(=O)NCCCCCNC(=O)OCc1ccccc1`
Given back: -0.564

Asked: Give reported z-score value for `COc1cc([C@@H]2N[C@H](C(=O)O)Cc3c2[nH]c2ccccc32)cc(OC)c1OC`
Given back: -1.81

Asked: For the compound `COc1cc(CO)cc(I)c1O[C@H]1C=C(C(=O)NCCO)C[C@@H](NCCc2c[nH]c3ccccc23)[C@@H]1O` , report z-score.
Given back: -3.34

Asked: Provide one value: measured z-score of `COC(=O)[C@@]1(Cc2ccccc2CN=[N+]=[N-])N=C(c2ccc(OCCCO)cc2)O[C@H]1c1ccccc1N=[N+]=[N-]`
Given back: -3.9

Asked: Answer with the recorded z-score for the compound listed here: `CC(C)[Si](OCC[C@H]1O[C@]2(C(=O)N(Cc3ccccc3)c3ccccc32)[C@@H](C)[C@@H]1[Si](C)(C)O)(C(C)C)C(C)C`
Given back: -0.555

Further cases:
Asked: For the compound `[N-]=[N+]=NCc1ccccc1[C@H]1OC(c2ccc(OCCCO)cc2)=N[C@@]1(Cc1ccccc1N=[N+]=[N-])C(=O)NCc1ccccc1` , report z-score.
Given back: -3.99

Asked: For `C#CCCCON=C1C[C@@H](O)[C@@H](O)[C@@H]2[C@@H]3C(=O)N(Cc4ccc5c(c4)OCO5)C(=O)[C@@H]3CC[C@@H]12` , write its z-score.
Given back: -0.209

Asked: Give recorded z-score. `CCCCCCc1nc(-c2cc(C)c(OC)c(C)c2)cc2c1[Si](C(C)C)(C(C)C)O[C@H]2c1ccccc1`
Given back: -0.59

Asked: Give me measured z-score, please, for this compound: `C=CCc1cccc([C@@H]2[C@@H](C)CC[C@H]3C(=O)N4[C@H](c5cccc(CC=C)c5)[C@@H](C)CC[C@H]4C(=O)N23)c1`
Given back: -3.75

Asked: Given `COCCOC(=O)N1C(=O)[C@@]2(c3cc(C#CCNC(N)=O)ccc31)[C@H](c1ccccc1OCCO)N1[C@H](c3ccccc3)[C@H](c3ccccc3)OC(=O)[C@H]1[C@@H]2C(=O)NC[C@H](O)c1ccccc1` , respond with its z-score.
Given back: -0.429

Asked: Return the recorded z-score value; entry: `COc1ccc(C(=O)Nc2ccc(CN3C(=O)[C@]4(O[C@H](CCn5cc(CCO)nn5)[C@@H]([Si](C)(C)c5ccc(OC)cc5)[C@@H]4C)c4ccccc43)cc2)cc1`
Given back: -7.86

Asked: Identify measured z-score corresponding to CC[C@H]1C2=C3C(CC[C@H]4C(OC)OC[C@](C)([C@@H]34)N(C(=O)OC(C)(C)C)C2)C(CO)C1CO (some centres not stated)
Given back: -1.06
